B1: ZNF8 (parent)
chain: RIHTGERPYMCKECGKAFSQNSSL

# Variants of: B1
# test_method_notes: protein stability index of a GFP-peptide fusion (GPS, HEK-293T) (PSI 1-6); higher = more stable;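 note: lentivirally expressed fusions sorted by FACS into six bins by GFP to DsRed ratio, PSI derived from sequencing read proportions per bin multiplied by bin number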
# particulars: c terminus: a fixed tail appended
measured_endpoint: protein stability index
When you answer, write just the number.

Task item: Entry under review: RIHTGGRPYMCKECGKAFSQNSSL [E6G] . Reported protein stability index?
Reply: 1.5

Task item: Entry under review: EIHTGERPYMCKECGKAFSQNSSL [R1E] . Reported protein stability index?
Reply: 2.87

Task item: Entry under review: RIHTGERPYMCKECGKAQSQNSSL [F18Q] . Reported protein stability index?
Reply: 2.79

Task item: Entry under review: RRHTGERPYMCKECGKAFSQNSSL [I2R] . Reported protein stability index?
Reply: 2.94

Task item: Entry under review: RIHTGERPYMCKACGKAFSQNSSL [E13A] . Reported protein stability index?
Reply: 2.08

Task item: Entry under review: RIHTGERPYMCKECGKAFSQGSSL [N21G] . Reported protein stability index?
Reply: 2.71

Task item: Entry under review: RIHTGERPYMCKPCGKAFSQNSSL [E13P] . Reported protein stability index?
Reply: 2.07

Task item: Entry under review: RSHTGERPYMCKECGKAFSQNSSL [I2S] . Reported protein stability index?
Reply: 2.75

Task item: Entry under review: RIHTGERPYMCKECGKAFYQNSSL [S19Y] . Reported protein stability index?
Reply: 2.18

Task item: Entry under review: RIHTGERPYMCKECGKAFSQNSSS [L24S] . Reported protein stability index?
Reply: 3.55

Task item: Entry under review: RIQTGERPYMCKECGKAFSQNSSL [H3Q] . Reported protein stability index?
Reply: 2.47

Task item: Entry under review: RIHTGERPYMCKECGKYFSQNSSL [A17Y] . Reported protein stability index?
Reply: 2.37

Task item: Entry under review: RIHTGERPYMCKECGKAFSQNSDL [S23D] . Reported protein stability index?
Reply: 2.8

Task item: Entry under review: RIHTGERPYLCKECGKAFSQNSSL [M10L] . Reported protein stability index?
Reply: 2.74

Task item: Entry under review: RIHTGERPYMCKECGMAFSQNSSL [K16M] . Reported protein stability index?
Reply: 2.63

Task item: Entry under review: RIHTGERPYMCKESGKAFSQNSSL [C14S] . Reported protein stability index?
Reply: 2.74

Task item: Entry under review: QIHTGERPYMCKECGKAFSQNSSL [R1Q] . Reported protein stability index?
Reply: 2.75

Task item: Entry under review: RIHTGERPYMCKECGKAFSENSSL [Q20E] . Reported protein stability index?
Reply: 3.19

Task item: Entry under review: RIHTGERPYMCKDCGKAFSQNSSL [E13D] . Reported protein stability index?
Reply: 1.39

Task item: Entry under review: RIHTGERPYMCKERGKAFSQNSSL [C14R] . Reported protein stability index?
Reply: 2.51

Task item: Entry under review: WIHTGERPYMCKECGKAFSQNSSL [R1W] . Reported protein stability index?
Reply: 2.27

Task item: Entry under review: YIHTGERPYMCKECGKAFSQNSSL [R1Y] . Reported protein stability index?
Reply: 2.2
